So I've got a bunch of compounds here, and I need their CYP inhibition % @10 uM (2D6) values.
molecular target: CYP2D6 (Homo sapiens, UniProt P10635); construct: tissue BD-Gentest 452117; host or cells: human liver microsomes; experiment: CYP inhibition assay in human liver microsome, CYP2D6; assay type: in vitro ADME; conditions: HLM, dextromethorphan substrate, 10 µM
Sequence (P10635 whole entry): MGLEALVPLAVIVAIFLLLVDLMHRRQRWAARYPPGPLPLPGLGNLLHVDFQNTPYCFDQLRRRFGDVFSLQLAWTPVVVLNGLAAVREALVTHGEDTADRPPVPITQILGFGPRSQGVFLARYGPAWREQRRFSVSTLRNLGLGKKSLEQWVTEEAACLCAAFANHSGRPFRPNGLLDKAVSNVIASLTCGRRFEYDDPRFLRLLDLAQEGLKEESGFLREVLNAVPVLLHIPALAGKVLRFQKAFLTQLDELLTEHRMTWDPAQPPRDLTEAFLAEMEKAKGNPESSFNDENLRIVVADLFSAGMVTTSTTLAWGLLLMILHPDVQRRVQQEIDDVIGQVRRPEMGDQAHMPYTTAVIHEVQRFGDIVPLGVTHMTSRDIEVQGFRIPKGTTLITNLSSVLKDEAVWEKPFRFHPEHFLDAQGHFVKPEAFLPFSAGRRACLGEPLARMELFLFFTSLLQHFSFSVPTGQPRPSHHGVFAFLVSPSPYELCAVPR
Give bare numbers, in %.

The cases that follow already have their CYP inhibition % @10 uM (2D6) on record.
[
  {
    "Compound": "C[C@@H]1CN(c2ccc(C(F)(F)F)c3ncccc23)C[C@H](C(=O)NC2CC3CCCC(C2)N3)O1 (single isomer, unassigned) [Example 34B]",
    "CYP inhibition % @10 uM (2D6), %": "−10"
  },
  {
    "Compound": "C[C@@H]1CN(c2ccc(C(F)(F)F)c3ncccc23)C[C@H](C(=O)NC2CC3CNCC32)O1 (single isomer, unassigned) [Example 49B]",
    "CYP inhibition % @10 uM (2D6), %": "−12"
  }
]

Now look at this entry.
Field: CYP inhibition % @10 uM (2D6) (CYP2D6 (Homo sapiens, UniProt P10635)). Entry: C[C@@H]1CN(c2ccc(C(F)(F)F)c3ncccc23)C[C@H](C(=O)NC2CC3CCCC(C2)N3)O1 (single isomer, unassigned) [Example 34A]
3
